Conditions: in n-propanol, 308.15 K
Assay readout: solubility (mole fraction)
# output: bare number, no unit

Name the recorded solubility (mole fraction) of the molecule listed here: Nc1cccnn1
0.0293

---

Details: in ethyl acetate, 318.65 K
Assay readout: solubility (mole fraction)
# output: bare number, no unit

Name the recorded solubility (mole fraction) of the compound listed here: Nc1cccnn1
0.00588

---

Settings: in n-butanol, 313.15 K
Assay readout: solubility (mole fraction)
# output: bare number, no unit

Name the recorded solubility (mole fraction) of the molecule listed here: Nc1cccnn1
0.0324

---

Settings: in isopropanol, 303.55 K
Assay readout: solubility (mole fraction)
# output: bare number, no unit

Name the recorded solubility (mole fraction) of the molecule listed here: Nc1cccnn1
0.0203

---

Conditions: in n-butanol, 298.05 K
Assay readout: solubility (mole fraction)

Name the recorded solubility (mole fraction) of the compound listed here: Nc1cccnn1
0.017

---

Details: in acetone, 328.05 K
Assay readout: solubility (mole fraction)

Name the recorded solubility (mole fraction) of the compound listed here: Nc1cccnn1
0.0187

---

Conditions: in acetone, 313.25 K
Assay readout: solubility (mole fraction)
# output: bare number, no unit

Name the recorded solubility (mole fraction) of the compound listed here: Nc1cccnn1
0.0133

---

Conditions: in methanol, 318.25 K
Assay readout: solubility (mole fraction)

Name the recorded solubility (mole fraction) of the compound listed here: Nc1cccnn1
0.076

---

Conditions: in methanol, 328.15 K
Assay readout: solubility (mole fraction)
# output: bare number, no unit

Name the recorded solubility (mole fraction) of the molecule listed here: Nc1cccnn1
0.0981

---

Settings: in methanol, 303.25 K
Assay readout: solubility (mole fraction)
# output: bare number, no unit

Name the recorded solubility (mole fraction) of the molecule listed here: Nc1cccnn1
0.052

---

Conditions: in ethyl acetate, 298.65 K
Assay readout: solubility (mole fraction)
# output: bare number, no unit

Name the recorded solubility (mole fraction) of the molecule listed here: Nc1cccnn1
0.00324

---

Conditions: in ethyl acetate, 312.95 K
Assay readout: solubility (mole fraction)

Name the recorded solubility (mole fraction) of the compound listed here: Nc1cccnn1
0.00522

---

Conditions: in n-propanol, 318.35 K
Assay readout: solubility (mole fraction)
# output: bare number, no unit

Name the recorded solubility (mole fraction) of the molecule listed here: Nc1cccnn1
0.0401

---

Details: in acetone, 323.35 K
Assay readout: solubility (mole fraction)
# output: bare number, no unit

Name the recorded solubility (mole fraction) of the compound listed here: Nc1cccnn1
0.0169

---

Details: in n-butanol, 318.05 K
Assay readout: solubility (mole fraction)
# output: bare number, no unit

Name the recorded solubility (mole fraction) of the molecule listed here: Nc1cccnn1
0.0371

---

Conditions: in n-butanol, 308.15 K
Assay readout: solubility (mole fraction)
# output: bare number, no unit

Name the recorded solubility (mole fraction) of the compound listed here: Nc1cccnn1
0.0267

---

Settings: in isopropanol, 312.85 K
Assay readout: solubility (mole fraction)
# output: bare number, no unit

Name the recorded solubility (mole fraction) of the molecule listed here: Nc1cccnn1
0.0277

---

Details: in ethanol, 308.25 K
Assay readout: solubility (mole fraction)
# output: bare number, no unit

Name the recorded solubility (mole fraction) of the compound listed here: Nc1cccnn1
0.0306

---

Conditions: in n-butanol, 332.95 K
Assay readout: solubility (mole fraction)
# output: bare number, no unit

Name the recorded solubility (mole fraction) of the molecule listed here: Nc1cccnn1
0.0519

---

Conditions: in methanol, 298.15 K
Assay readout: solubility (mole fraction)

Name the recorded solubility (mole fraction) of the compound listed here: Nc1cccnn1
0.0455

---

Settings: in isopropanol, 317.75 K
Assay readout: solubility (mole fraction)
# output: bare number, no unit

Name the recorded solubility (mole fraction) of the compound listed here: Nc1cccnn1
0.0315

---

Details: in aniline, 293.25 K
Assay readout: solubility (mole fraction)
# output: bare number, no unit

Name the recorded solubility (mole fraction) of the compound listed here: Nc1cccnn1
0.0289

---

Settings: in aniline, 328.15 K
Assay readout: solubility (mole fraction)
# output: bare number, no unit

Name the recorded solubility (mole fraction) of the compound listed here: Nc1cccnn1
0.076

---

Conditions: in acetone, 303.05 K
Assay readout: solubility (mole fraction)

Name the recorded solubility (mole fraction) of the compound listed here: Nc1cccnn1
0.0102

---

Conditions: in n-propanol, 293.05 K
Assay readout: solubility (mole fraction)
# output: bare number, no unit

Name the recorded solubility (mole fraction) of the compound listed here: Nc1cccnn1
0.0185

---

Conditions: in n-propanol, 302.85 K
Assay readout: solubility (mole fraction)

Name the recorded solubility (mole fraction) of the molecule listed here: Nc1cccnn1
0.0255

---

Settings: in ethanol, 333.15 K
Assay readout: solubility (mole fraction)
# output: bare number, no unit

Name the recorded solubility (mole fraction) of the compound listed here: Nc1cccnn1
0.0713

---

Conditions: in aniline, 288.05 K
Assay readout: solubility (mole fraction)
# output: bare number, no unit

Name the recorded solubility (mole fraction) of the compound listed here: Nc1cccnn1
0.0231

---

Conditions: in n-propanol, 333.15 K
Assay readout: solubility (mole fraction)
# output: bare number, no unit

Name the recorded solubility (mole fraction) of the molecule listed here: Nc1cccnn1
0.0602

---

Details: in ethyl acetate, 332.35 K
Assay readout: solubility (mole fraction)
# output: bare number, no unit

Name the recorded solubility (mole fraction) of the compound listed here: Nc1cccnn1
0.00813

---

Conditions: in ethanol, 313.35 K
Assay readout: solubility (mole fraction)
# output: bare number, no unit

Name the recorded solubility (mole fraction) of the molecule listed here: Nc1cccnn1
0.0349

---

Details: in methanol, 313.15 K
Assay readout: solubility (mole fraction)
# output: bare number, no unit

Name the recorded solubility (mole fraction) of the compound listed here: Nc1cccnn1
0.0675

---

Details: in ethyl acetate, 328.25 K
Assay readout: solubility (mole fraction)
# output: bare number, no unit

Name the recorded solubility (mole fraction) of the molecule listed here: Nc1cccnn1
0.00738

---

Conditions: in aniline, 302.95 K
Assay readout: solubility (mole fraction)
# output: bare number, no unit

Name the recorded solubility (mole fraction) of the compound listed here: Nc1cccnn1
0.0419

---

Conditions: in aniline, 313.15 K
Assay readout: solubility (mole fraction)
# output: bare number, no unit

Name the recorded solubility (mole fraction) of the compound listed here: Nc1cccnn1
0.0559

---

Conditions: in aniline, 318.15 K
Assay readout: solubility (mole fraction)
# output: bare number, no unit

Name the recorded solubility (mole fraction) of the molecule listed here: Nc1cccnn1
0.0623

---

Conditions: in isopropanol, 308.45 K
Assay readout: solubility (mole fraction)
# output: bare number, no unit

Name the recorded solubility (mole fraction) of the compound listed here: Nc1cccnn1
0.0233

---

Settings: in aniline, 308.45 K
Assay readout: solubility (mole fraction)
# output: bare number, no unit

Name the recorded solubility (mole fraction) of the compound listed here: Nc1cccnn1
0.0487

---

Settings: in ethanol, 318.35 K
Assay readout: solubility (mole fraction)
# output: bare number, no unit

Name the recorded solubility (mole fraction) of the compound listed here: Nc1cccnn1
0.0409

---

Conditions: in ethanol, 298.75 K
Assay readout: solubility (mole fraction)

Name the recorded solubility (mole fraction) of the compound listed here: Nc1cccnn1
0.0237

---

Conditions: in acetone, 288.25 K
Assay readout: solubility (mole fraction)

Name the recorded solubility (mole fraction) of the compound listed here: Nc1cccnn1
0.0068

---

Details: in ethanol, 328.35 K
Assay readout: solubility (mole fraction)

Name the recorded solubility (mole fraction) of the molecule listed here: Nc1cccnn1
0.0602

---

Conditions: in n-butanol, 322.65 K
Assay readout: solubility (mole fraction)
# output: bare number, no unit

Name the recorded solubility (mole fraction) of the molecule listed here: Nc1cccnn1
0.042

---

Settings: in methanol, 288.15 K
Assay readout: solubility (mole fraction)
# output: bare number, no unit

Name the recorded solubility (mole fraction) of the compound listed here: Nc1cccnn1
0.0356

---

Settings: in n-propanol, 313.05 K
Assay readout: solubility (mole fraction)

Name the recorded solubility (mole fraction) of the compound listed here: Nc1cccnn1
0.0351

---

Conditions: in aniline, 323.45 K
Assay readout: solubility (mole fraction)
# output: bare number, no unit

Name the recorded solubility (mole fraction) of the molecule listed here: Nc1cccnn1
0.0693

---

Details: in ethanol, 288.35 K
Assay readout: solubility (mole fraction)

Name the recorded solubility (mole fraction) of the compound listed here: Nc1cccnn1
0.0193

---

Conditions: in isopropanol, 323.25 K
Assay readout: solubility (mole fraction)
# output: bare number, no unit

Name the recorded solubility (mole fraction) of the molecule listed here: Nc1cccnn1
0.0373

---

Settings: in ethyl acetate, 288.45 K
Assay readout: solubility (mole fraction)
# output: bare number, no unit

Name the recorded solubility (mole fraction) of the molecule listed here: Nc1cccnn1
0.00228

---

Conditions: in methanol, 308.15 K
Assay readout: solubility (mole fraction)
# output: bare number, no unit

Name the recorded solubility (mole fraction) of the compound listed here: Nc1cccnn1
0.0596

Reference for the values: BigSolDB 2.1
